Attribution: patent US20090123479A1

study target: T1, recombinant human IL-23 (human, UniProt Q9NPF7 20-189; P29460 23-328)
T1 construct: also called hIL-23
T1 sequence 1: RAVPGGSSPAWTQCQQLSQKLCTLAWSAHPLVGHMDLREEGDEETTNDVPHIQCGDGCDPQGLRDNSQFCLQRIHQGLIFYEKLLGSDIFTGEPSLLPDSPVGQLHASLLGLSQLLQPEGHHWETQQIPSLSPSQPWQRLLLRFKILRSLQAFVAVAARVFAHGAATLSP
T1 sequence 2: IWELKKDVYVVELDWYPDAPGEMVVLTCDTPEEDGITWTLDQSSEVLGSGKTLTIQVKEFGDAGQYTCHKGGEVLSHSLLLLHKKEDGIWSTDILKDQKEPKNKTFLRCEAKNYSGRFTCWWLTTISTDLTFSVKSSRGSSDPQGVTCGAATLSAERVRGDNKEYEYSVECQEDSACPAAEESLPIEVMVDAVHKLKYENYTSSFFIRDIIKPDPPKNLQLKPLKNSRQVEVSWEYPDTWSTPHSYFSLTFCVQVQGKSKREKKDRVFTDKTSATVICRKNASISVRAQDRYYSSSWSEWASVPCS
test protocol: SPR (Biacore 3000), CHO supernatant antibody captured on Protein A or anti-human IgG, IL-23 analyte at 256, 64, 16, 4 nM
measure name: koff

Find the recorded koff belonging to A3N1 (antibody, human IgG1, kappa, V domains shown, Full length chains) VH: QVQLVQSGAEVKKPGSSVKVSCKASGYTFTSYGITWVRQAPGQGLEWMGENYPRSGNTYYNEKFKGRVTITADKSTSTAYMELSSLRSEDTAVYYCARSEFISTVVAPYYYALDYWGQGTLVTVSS VL: DIVMTQTPLSLSVTPGQPASISCKASKKVTIFGSISALHWYLQKPGQPPQLIYNGAKLESGVSDRFSDSGSQNRSPFGNQLSFTLKISRVEAEDVGVYYCLQNKEVPYTFGGGTKVEIKR and report it.
0.00039 s⁻¹
